Test system: P388 leukemia ip, CD2F1 mice, survival T/C
Method Summary: NCI In Vivo Anticancer Drug Screen. Data for tumor model P388 Leukemia (intraperitoneal) in CD2F1 (CDF1) mice
Test Conditions: endpoint: median survival time; dose: 200.0 mg/kg/injection; schedule: Q01DX005 (ip); vehicle: Klucel (hydroxypropylcellulose) (HPC); higher = longer survival
Toxic doses and inconclusive results are not listed.
T/C listing for selected molecules.

Cc1ccc(N=C(c2ccccc2)N(O)c2ccc(Cl)cc2)cc1Cl    94 % of control
O=C1CSC(c2ccccc2F)N1c1nccs1 (stereo not drawn)    109 % of control
Cc1cc(C)nc(NS(=O)(=O)c2ccc(NC(=O)c3ccncc3)cc2)n1    91 % of control
C=C(C)C1CC=C(C)/C(=N/NC(=O)c2cccnc2)C1 (stereo not drawn)    109 % of control
COc1ccccc1/C=C/C(=O)c1ccccc(=O)c1O    109 % of control
CCS(=O)(=O)c1ncnc2nc[nH]c12    100 % of control
CS(=O)(=O)/C=C/COC(=O)/C=C/c1ccccc1    102 % of control
COc1cccc(/C=C/c2cc3c(cc2Br)OCO3)c1    101 % of control

// query Give recorded T/C with P388 leukemia ip, CD2F1 mice, survival T/C for the following molecule: CN(/N=C\c1ccccc1)C(N)=S
// result 101 % of control

// query Requested read-out T/C, target or system P388 leukemia ip, CD2F1 mice, survival T/C, entry COc1cccc([B-]23OCC[N+]2(CNC(=O)c2ccccc2O)CCO3)c1 (stereo not drawn)
// result 112 % of control

// query T/C of O=C1OC(c2ccccc2)=N/C1=C\c1ccccc1O on P388 leukemia ip, CD2F1 mice, survival T/C?
// result 93 % of control

// query Find T/C (P388 leukemia ip, CD2F1 mice, survival T/C) for the entry N#CCc1csc2ccccc12
// result 112 % of control

// query Short answer please: T/C, P388 leukemia ip, CD2F1 mice, survival T/C, entry CCOC(=O)C1Cc2c([nH]c(=O)[nH]c2=O)OC1c1ccc([N+](=O)[O-])cc1 (stereo not drawn)
// result 94 % of control

// query State its T/C on P388 leukemia ip, CD2F1 mice, survival T/C: O=C(O)CNC(=S)C(=S)NCC(=O)O
// result 90 % of control

----------
System: P388 leukemia ip, CD2F1 mice, survival T/C
Method Summary: NCI In Vivo Anticancer Drug Screen. Data for tumor model P388 Leukemia (intraperitoneal) in CD2F1 (CDF1) mice
Test Conditions: endpoint: median survival time; dose: 100.0 mg/kg/injection; schedule: Q01DX005 (ip); vehicle: saline; higher = longer survival
Toxic doses and inconclusive results are not listed. Peptide text beside a SMILES is read from it.
# key: entry, value: T/C

CC1C(=O)CC2CCC1N2C(=O)O (stereo not drawn)    96 % of control
CC(O)C(N)C(=O)NC(Cc1ccc(O)cc1)C(=O)NC(CCCCN)C(=O)O (stereo not drawn) (H-Thr-Tyr-Lys-OH; configuration not given here)    101 % of control
CCN(CC)CCC(=O)c1ccc(OC)c2ccccc12    104 % of control
C/C=C1\CN2CC[C@H]1C[C@H]2[C@H](O)c1ccnc2ccc(NCCO)cc12    99 % of control
N#CC(C#N)=C(O)/C(=C/c1ccc(Cl)c(Cl)c1)NC(=O)c1ccccc1    88 % of control

// query Please provide the recorded T/C for C=C(CC1(O)C(C2COC(C)(C)O2)OC2OC(C)(C)OC21)C(=O)OCC (stereo not drawn) , tested on P388 leukemia ip, CD2F1 mice, survival T/C.
// result 98 % of control

// query T/C of CC1CCCC(C)N1NC(=O)C(C)(C)C (stereo not drawn) on P388 leukemia ip, CD2F1 mice, survival T/C?
// result 115 % of control

// query Find the measured T/C: item CC(C)C1OCN2C(C)CCCC12 (stereo not drawn) , target or system P388 leukemia ip, CD2F1 mice, survival T/C.
// result 111 % of control

// query Form field - read-out: T/C; system: P388 leukemia ip, CD2F1 mice, survival T/C; submitted item: CCC1C(=O)OCC1Cc1cncn1C (stereo not drawn)
// result 94 % of control

// query I'm curious: which T/C was measured for C=CS(=O)(=O)c1cccc(N2C(=O)c3cc(S(=O)(=O)O)cc4c(N)c(S(=O)(=O)O)cc(c34)C2=O)c1 tested on P388 leukemia ip, CD2F1 mice, survival T/C?
// result 107 % of control

// query # returns recorded T/C (system: P388 leukemia ip, CD2F1 mice, survival T/C) for CC(=O)OCC#CCN1CCC(C)CC1
// result 95 % of control

// query Query for P388 leukemia ip, CD2F1 mice, survival T/C: what T/C does the record show for OCCOCCSc1ccccn1 ?
// result 111 % of control

// query Provide the documented T/C with P388 leukemia ip, CD2F1 mice, survival T/C as the system for CN1CC[C@H]([C@@H](O)c2ccccc2)C1=O
// result 102 % of control

Reference source for all entries: PubChem BioAssay AID330
